Source listed as patent US10933061B2.

system: SK-UT-1B leiomyosarcoma cells; assay: Chou-Talalay combination assay, Cell Titer Glo; type: cell-based; settings: combination with pyrvinium pamoate, 72 hour incubation
Reported CI range values for a set of compounds

* O=P1(NCCCl)OCCCN1CCCl (centres unmarked) [Ifosfamide] | 0.285-0.315

Log: SK-UT-1B leiomyosarcoma cells, compound CC(=O)O[C@H]1C(=O)[C@@]2(C)[C@H]([C@H](OC(=O)c3ccccc3)[C@]3(O)C[C@H](OC(=O)[C@H](O)[C@@H](NC(=O)c4ccccc4)c4ccccc4)C(C)=C1C3(C)C)[C@]1(OC(C)=O)CO[C@@H]1C[C@@H]2O , CI range = 0.262-0.773

Log: SK-UT-1B leiomyosarcoma cells, compound Nc1ccn([C@@H]2O[C@H](CO)[C@@H](O)C2(F)F)c(=O)n1 , CI range = 0.516-0.687

Log: SK-UT-1B leiomyosarcoma cells, compound COc1cccc2c1C(=O)c1c(O)c3c(c(O)c1C2=O)C[C@@](O)(C(=O)CO)C[C@@H]3O[C@H]1C[C@H](N)[C@H](O)[C@H](C)O1 , CI range = 0.352-0.739

Log: SK-UT-1B leiomyosarcoma cells, compound CCc1c2c(nc3ccc(OC(=O)N4CCC(N5CCCCC5)CC4)cc13)-c1cc3c(c(=O)n1C2)COC(=O)[C@]3(O)CC , CI range = 0.235-0.705

###

test system: TFK-1 cholangiocarcinoma cells; assay: Chou-Talalay combination assay, Cell Titer Glo; format: cell-based; conditions: combination with pyrvinium pamoate, 72 hour incubation
Reported CI range values for a set of compounds

- Nc1ccn([C@@H]2O[C@H](CO)[C@@H](O)C2(F)F)c(=O)n1: 0.290-0.851
- CCN1CCN(Cc2ccc(Nc3ncc(F)c(-c4cc(F)c5nc(C)n(C(C)C)c5c4)n3)nc2)CC1: 0.522-0.884
- N.N.[Cl][Pt][Cl] [Cisplatin]: 0.058-0.361
- CC(=O)O[C@H]1C(=O)[C@@]2(C)[C@H]([C@H](OC(=O)c3ccccc3)[C@]3(O)C[C@H](OC(=O)[C@H](O)[C@@H](NC(=O)c4ccccc4)c4ccccc4)C(C)=C1C3(C)C)[C@]1(OC(C)=O)CO[C@@H]1C[C@@H]2O: 0.277-0.894
- O=c1[nH]cc(F)c(=O)[nH]1: 0.303-0.814

Now consider the entry below.
# compound CC[C@]1(O)C[C@H]2CN(CCc3c([nH]c4ccccc34)[C@@](C(=O)OC)(c3cc4c(cc3OC)N(C=O)[C@H]3[C@@](O)(C(=O)OC)[C@H](OC(C)=O)[C@]5(CC)C=CCN6CC[C@]43[C@@H]65)C2)C1 ; its CI range = 0.453-0.827

###

system: Flo-1 esophageal carcinoma cells; assay: Chou-Talalay combination assay, Cell Titer Glo; assay type: cell-based; conditions: combination with pyrvinium pamoate, 72 hour incubation
assayEndpoint: CI range

- N.N.O=C([O-])C1(C(=O)[O-])CCC1.[Pt+2] [Carboplatin]: 0.253-0.892

# compound O=c1[nH]cc(F)c(=O)[nH]1 [5-FU, 5-Fluorouracil] ; its CI range = 0.378-0.859

# compound O=C1[O][Pt]2([NH][C@@H]3CCCC[C@H]3[NH]2)[O]C1=O [Oxaliplatin] ; its CI range = 0.558-0.871

# compound CC(=O)O[C@H]1C(=O)[C@@]2(C)[C@H]([C@H](OC(=O)c3ccccc3)[C@]3(O)C[C@H](OC(=O)[C@H](O)[C@@H](NC(=O)c4ccccc4)c4ccccc4)C(C)=C1C3(C)C)[C@]1(OC(C)=O)CO[C@@H]1C[C@@H]2O [Paclitaxel] ; its CI range = 0.640-0.888
